These entries and their values trace back to patent US20250205342A1.

target: IRAK4 (Homo sapiens, UniProt Q9NWZ3)
Sequence (Q9NWZ3 1-460): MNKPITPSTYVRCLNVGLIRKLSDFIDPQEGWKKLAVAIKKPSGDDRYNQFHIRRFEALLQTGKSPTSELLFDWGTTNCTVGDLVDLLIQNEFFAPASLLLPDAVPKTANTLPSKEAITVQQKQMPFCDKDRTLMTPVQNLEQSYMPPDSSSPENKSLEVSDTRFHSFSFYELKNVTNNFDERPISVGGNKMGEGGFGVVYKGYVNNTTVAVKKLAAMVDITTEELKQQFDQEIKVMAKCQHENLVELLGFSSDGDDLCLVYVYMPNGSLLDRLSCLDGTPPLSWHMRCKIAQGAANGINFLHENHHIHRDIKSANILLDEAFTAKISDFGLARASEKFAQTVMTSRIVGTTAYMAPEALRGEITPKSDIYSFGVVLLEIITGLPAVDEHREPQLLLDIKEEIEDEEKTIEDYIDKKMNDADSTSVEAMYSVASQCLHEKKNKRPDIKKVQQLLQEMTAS
measurement_notes: IRAK4 degradation in OCI-LY10 (MSD, Meso Scale Discovery)
Type: cell-based
Set-up: endogenous in cells; host or cells: OCI-LY10
setup_conditions: OCI-LY10 cells, 24 h
Reported DC50 values for the following molecules.

I would be grateful if you could share the reported DC50 for O=C(O)Cn1cc(NC(=O)c2cc(CCCNC[C@H]3CC[C@H](n4cc(NC(=O)c5cnn6ccc(N7C[C@H]8C[C@@H]7CO8)nc56)c(C(F)F)n4)CC3)cc(-c3cccnc3)c2)ccc1=O [Compound I-76] .
> 10 µM

If you can, please state the reported DC50 value of CCOC(=O)Cn1cc(NC(=O)c2cccc(-c3cncc(CCCCCCCCCNC[C@H]4CC[C@H](n5cc(NC(=O)c6cnn7ccc(N8C[C@H]9C[C@@H]8CO9)nc67)c(C(F)F)n5)CC4)c3)c2)ccc1=O [Compound I-89] .
1 to 10 µM

Fill in: DC50 of O=C(O)Cn1cc(NC(=O)c2cc(CCCCCCCCCNC[C@H]3CC[C@H](n4cc(NC(=O)c5cnn6ccc(N7C[C@H]8C[C@@H]7CO8)nc56)c(C(F)F)n4)CC3)cc(-c3cccnc3)c2)ccc1=O [Compound I-74] is ___
> 10 µM

May I ask what DC50 has been recorded for CCOC(=O)Cn1cc(NC(=O)c2cccc(-c3cncc(CCCCCCNC[C@H]4CC[C@H](n5cc6cc(NC(=O)c7cccc(C(F)(F)F)n7)c(C(C)(C)O)cc6n5)CC4)c3)c2)ccc1=O [Compound I-97] ?
1 to 10 µM

New cases:
What measured DC50 goes with CCOC(=O)Cn1cc(NC(=O)c2ccc(-c3ccc(F)c(CCCCCCCCCNC[C@H]4CC[C@H](n5cc6cc(NC(=O)c7cccc(C(F)(F)F)n7)c(C(C)(C)O)cc6n5)CC4)c3)cc2OC)ccc1=O [Compound I-64] ?
1 to 10 µM

# input molecule: O=C(O)Cn1cc(NC(=O)[C@H]2CCCN(c3cncc(C4CCN(C[C@H]5CC[C@H](n6cc(NC(=O)c7cnn8ccc(N9C[C@H]%10C[C@@H]9CO%10)nc78)c(C(F)F)n6)CC5)CC4)c3)C2)ccc1=O [Compound I-12] ; wanted: its DC50
> 10 µM

Dear colleague, I am looking for the recorded DC50 of the following molecule: CCOC(=O)Cn1cc(NC(=O)[C@H]2CCCN(c3cncc(C#CCOC4CCN(C[C@H]5CC[C@H](n6cc7cc(NC(=O)c8cccc(C(F)(F)F)n8)c(OC)cc7n6)CC5)CC4)c3)C2)ccc1=O [Compound I-22]
> 10 µM

What does the record list as DC50 for O=C(O)Cn1cc(NC(=O)c2cccc(-c3cncc(CCCCCCCCCNC[C@H]4CC[C@H](n5cc(NC(=O)c6cnn7ccc(N8C[C@H]9C[C@@H]8CO9)nc67)c(C(F)F)n5)CC4)c3)c2)ccc1=O [Compound I-85] ?
> 10 µM

So what does the record say about DC50 for COC(=O)Cn1cc(NC(=O)c2cccc(-c3cncc4cc(CCCCCCCCCNC[C@H]5CC[C@H](n6cc7cc(NC(=O)c8cccc(C(F)(F)F)n8)c(C(C)(C)O)cc7n6)CC5)ccc34)c2)ccc1=O [Compound I-55] ?
> 10 µM

---

target: IRAK4 (Homo sapiens, UniProt Q9NWZ3)
Sequence (Q9NWZ3 1-460): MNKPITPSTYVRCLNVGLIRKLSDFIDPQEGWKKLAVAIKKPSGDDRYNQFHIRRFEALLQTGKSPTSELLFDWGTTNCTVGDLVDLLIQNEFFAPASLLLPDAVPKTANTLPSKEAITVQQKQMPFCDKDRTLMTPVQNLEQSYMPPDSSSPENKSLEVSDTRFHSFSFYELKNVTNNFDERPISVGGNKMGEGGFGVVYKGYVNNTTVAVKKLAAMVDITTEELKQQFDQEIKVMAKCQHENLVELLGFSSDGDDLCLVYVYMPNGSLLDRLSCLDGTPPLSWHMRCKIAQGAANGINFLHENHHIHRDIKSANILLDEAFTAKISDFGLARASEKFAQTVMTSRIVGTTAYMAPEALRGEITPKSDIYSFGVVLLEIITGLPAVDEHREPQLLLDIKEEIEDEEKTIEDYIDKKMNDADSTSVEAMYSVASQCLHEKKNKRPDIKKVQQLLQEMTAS
measurement_notes: IRAK4 degradation in OCI-LY10 (MSD, Meso Scale Discovery)
Type: cell-based
Design: endogenous in cells; host or cells: OCI-LY10
setup_conditions: OCI-LY10 cells, 24 h
Description: Degradation of IRAK4 in OCI-LY10 was quantitatively measured using Meso Scale Discovery technology. OCI-LY10 cells were seeded in 96-well plates (Corning 3799) with a density of 300,000 cells per well in 100 μL fresh media. […] The assay plates were then incubated at room temperature for 1 hour, washed 3 times with 150 μL/well TBST buffer, and 150 μL/well MSD reading buffer (Meso Scale Discovery catalog number R^92TC-2) was added. […]
readout_kind: DC50

The cases that follow already have their DC50 on record.
Form field: reported DC50 of CC(C)(O)c1cc2nn([C@H]3CC[C@H](CNCCCCCCc4ccc5c(-c6cccc(C(=O)Nc7ccc(=O)n(CC(=O)O)c7)c6)cncc5c4)CC3)cc2cc1NC(=O)c1cccc(C(F)(F)F)n1
> 10 µM

For COC(=O)Cn1cc(NC(=O)c2cccc(-c3cncc4c(CCCCCCCCCNC[C@H]5CC[C@H](n6cc7cc(NC(=O)c8cccc(C(F)(F)F)n8)c(C(C)(C)O)cc7n6)CC5)cccc34)c2)ccc1=O , what is its reported DC50?
1 to 10 µM

Tell me the measured DC50 of CCOC(=O)Cn1cc(NC(=O)c2cccc3c2ccn3CCCCCCNC[C@H]2CC[C@H](n3cc(NC(=O)c4cnn5ccc(N6C[C@H]7C[C@@H]6CO7)nc45)c(C(F)F)n3)CC2)ccc1=O , please.
> 10 µM

Please report the recorded DC50 for CC(C)(O)c1cc2nn([C@H]3CC[C@H](CNCCCCCCCCCC4=CC(c5cccnc5)CC(C(=O)Nc5ccc(=O)n(CC(=O)O)c5)=C4)CC3)cc2cc1NC(=O)c1cccc(C(F)(F)F)n1 (some centres unmarked) .
> 10 µM

Now take the following molecule into account.
Given the entry CCOC(=O)Cn1cc(NC(=O)c2cc(CCCCCCCCCNC[C@H]3CC[C@H](n4cc5cc(NC(=O)c6cccc(C(F)(F)F)n6)c(C(C)(C)O)cc5n4)CC3)cc(-c3cccnc3)c2)ccc1=O , report its measured DC50.
1 to 10 µM

---

target: IRAK4 (Homo sapiens)
measurement_notes: hPBMC IRAK4 degradation flow assay (monocytes)
Format: cell-based
Set-up: endogenous in cells; host or cells: human PBMCs (monocytes, CD14 positive gate)
setup_conditions: CD14 positive monocytes, 20 h, read-out: hPBMC monocyte DC50 at 20 h
readout_kind: DC50

Known results for molecules:
For the record CCOC(=O)Cn1cc(NC(=O)c2cccc3c2ccn3CCCCCCNC[C@H]2CC[C@H](n3cc4cc(NC(=O)c5cccc(C(F)(F)F)n5)c(C(C)(C)O)cc4n3)CC2)ccc1=O [Compound I-71] , what value of DC50 is listed for IRAK4 (Homo sapiens)?
> 10 µM

Find the measured DC50: item COC(=O)Cn1cc(NC(=O)c2cccc(-c3cncc(CCCCCCCCCNC[C@H]4CC[C@H](n5cc6cc(NC(=O)c7cccc(C(F)(F)F)n7)c(C(C)(C)O)cc6n5)CC4)c3)c2)ccc1=O [Compound I-49] , target or system IRAK4 (Homo sapiens).
0.1 to 1 µM

Here is the next item to consider.
Find the measured DC50: item CC(C)(O)c1cc2nn([C@H]3CC[C@H](CNCCCCCCc4ccc5c(-c6cccc(C(=O)Nc7ccc(=O)n(CC(=O)O)c7)c6)cncc5c4)CC3)cc2cc1NC(=O)c1cccc(C(F)(F)F)n1 [Compound I-52] , target or system IRAK4 (Homo sapiens).
> 10 µM
